system: AsPC-1 cells; assay: AsPC-1 cell proliferation assay (CellTiter Glo); assay type: cell-based; conditions: Homo sapiens, ASPC1, 144 h, 6 days
Hi there, I'd appreciate the recorded IC50 for every entry that follows.

Solved cases (3 shown):
CO[C@@H](C)COc1nc(N2C[C@@H]3C[C@H]2CN3)c2cc(C3CC3)c(-c3c(C)c(F)cc4[nH]ncc34)c(OCc3ccc(-c4cn([C@H](C(=O)N5C[C@H](O)C[C@H]5C(=O)N[C@H](C#Cc5ccc6ncsc6c5)CO)C(C)C)nn4)cc3)c2n1 [Example 54] ... < 10 nM
CO[C@@H](C)COc1nc(N2C[C@@H]3C[C@H]2CN3)c2cc(C3CC3)c(-c3c(C)c(F)cc4[nH]ncc34)c(OCc3ccc(-c4cn([C@H](C(=O)N5C[C@H](O)C[C@H]5C(=O)N[C@H](C#Cc5cc(C)cc6[nH]ncc56)CO)C(C)C)nn4)cc3)c2n1 [Example 188] ... 10 to 100 nM
CCn1nccc1-c1ccc([C@H](CO)NC(=O)[C@@H]2C[C@@H](O)CN2C(=O)[C@H](C(C)C)n2cc(-c3ccc(COc4c(-c5c(C)c(F)cc6[nH]ncc56)c(C(F)(F)F)cc5c(N6C[C@@H]7C[C@H]6CN7)nc(OC[C@H](C)OC)nc45)cc3)nn2)cc1 [Example 30] ... < 10 nM

Record IC50 for all entries; do not skip any.
1. CCn1nccc1-c1ccc([C@H](CO)NC(=O)[C@@H]2C[C@@H](O)CN2C(=O)[C@H](C(C)C)n2cc(-c3ccc(COc4c(-c5c(C)c(F)cc6[nH]ncc56)c(C5CC5)cc5c(N6C[C@@H]7C[C@H]6CN7)nc(OC6CC7(CCOCC7)C6)nc45)cc3)nn2)cc1 [Example 105]
2. CCn1nccc1-c1ccc([C@@H](NC(=O)[C@@H]2C[C@@H](O)CN2C(=O)[C@H](C(C)C)n2cc(-c3ccc(COc4c(-c5c(C)c(F)cc6[nH]ncc56)c(C5CC5)cc5c(N6C[C@@H]7C[C@H]6CN7)nc(OC6CCC(OC)CC6)nc45)cc3)nn2)[C@@H](C)O)cc1 (some centres unmarked) [Example 127]

1. < 10 nM
2. < 10 nM

For every listed record, write down its IC50.
1. CO[C@@H](C)COc1nc(N2C[C@@H]3C[C@H]2CN3)c2cc(C3CC3)c(-c3c(C)c(F)cc4[nH]ncc34)c(OCc3ccc(-c4cn([C@H](C(=O)N5C[C@H](O)C[C@H]5C(=O)N[C@H](C#Cc5ccc(F)cc5F)CO)C(C)C)nn4)cc3)c2n1 [Example 40]
2. CCn1nccc1-c1ccc([C@H](CO)NC(=O)[C@@H]2C[C@@H](O)CN2C(=O)[C@H](C(C)C)n2cc(-c3ccc(COc4c(-c5c(C)c(F)cc6[nH]ncc56)c(C5CC5)cc5c(N6C[C@@H]7C[C@H]6CN7)nc(OC(COC)C(F)(F)F)nc45)cc3)nn2)cc1 (some centres unmarked) [Example 58]
3. CCn1nccc1-c1ccc([C@H](CO)NC(=O)[C@@H]2C[C@@H](O)CN2C(=O)[C@H](C(C)C)n2cc(-c3ccc(COc4c(-c5c(C)c(F)cc6[nH]ncc56)c(C5CC5(F)F)cc5c(N6C[C@@H]7C[C@H]6CN7)nc(OC[C@H](C)OC)nc45)cc3)nn2)cc1 (some centres unmarked) [Example 52]

1: 10 to 100 nM; 2: < 10 nM; 3: < 10 nM

For the 2 compounds below, give their IC50 values.
1. CCn1nccc1-c1ccc([C@H](CO)NC(=O)[C@@H]2C[C@@H](O)CN2C(=O)[C@H](C(C)C)n2cc(-c3ccc(COc4c(-c5c(C)c(F)cc6[nH]ncc56)c(C5CC5)cc5c(N6C[C@@H]7C[C@H]6CN7)nc(OC6CCC7(CC6)COC7)nc45)cc3)nn2)cc1 [Example 43]
2. CO[C@@H](C)COc1nc(N2C[C@@H]3C[C@H]2CN3)c2cc(C3CC3)c(-c3c(C)c(F)cc4[nH]ncc34)c(OCc3ccc(-c4cn([C@H](C(=O)N5C[C@H](O)C[C@H]5C(=O)N[C@H](C#Cc5cccc(F)c5Cl)CO)C(C)C)nn4)cc3)c2n1 [Example 98]

1: < 10 nM; 2: < 10 nM

====

Task for the reader: assign each of the following compounds its reported DC50.
Biological target: KRAS (G12D) (Homo sapiens, UniProt P01116, G12D)
Construct: in-cell western with KRAS G12D antibody after 24 h
Sequence (P01116 1-188 isoform P01116-2 G12D): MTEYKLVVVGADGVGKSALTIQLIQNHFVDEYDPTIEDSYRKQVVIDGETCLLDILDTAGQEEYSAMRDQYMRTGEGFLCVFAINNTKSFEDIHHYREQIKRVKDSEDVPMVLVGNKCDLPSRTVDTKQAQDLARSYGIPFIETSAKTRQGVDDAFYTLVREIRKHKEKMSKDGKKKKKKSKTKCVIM
Test: KRAS (G12D) cellular degradation assay in AsPC-1 cells
Type: cell-based
Conditions: 24 hours, antibody fluorescence (Odyssey CLX), DC50 half-maximal degradation concentration
Procedure: ASPC-1 and PK-59 cellular assays ASPC-1 (ATCC cat. CRL-1682) and PK-59 (Nanjing Cobioer, Cat. No. CBP61184) were used in KRAS cellular degradation, pERK inhibition and proliferation assays. The two cell lines were maintained following vendor's instructions. […] Cells were incubated at 37° C. with 5% CO2 and cell density was monitored until ^~90% confluency was reached. […] Fluorescence signals were read on Odyssey CLX instrument. […]

CO[C@@H](C)COc1nc(N2C[C@@H]3C[C@H]2CN3)c2cc(C3CC3)c(-c3c(C)c(F)cc4[nH]ncc34)c(OCc3ccc(-c4cn([C@H](C(=O)N5C[C@H](O)C[C@H]5C(=O)N[C@H](C#Cc5scnc5C)CO)C(C)C)nn4)cc3)c2n1 ... < 10 nM

Report DC50 for each item below.
1. CCc1ncccc1C#C[C@H](CO)NC(=O)[C@@H]1C[C@@H](O)CN1C(=O)[C@H](C(C)C)n1cc(-c2ccc(COc3c(-c4c(C)c(F)cc5[nH]ncc45)c(C4CC4)cc4c(N5C[C@@H]6C[C@H]5CN6)nc(OC[C@H](C)OC)nc34)cc2)nn1
2. CO[C@@H](C)COc1nc(N2C[C@@H]3C[C@H]2CN3)c2cc(C3CC3)c(-c3c(C)c(F)cc4[nH]ncc34)c(OCc3ccc(-c4cn([C@H](C(=O)N5C[C@H](O)C[C@H]5C(=O)N[C@H](C#Cc5cccc6nn(C)cc56)CO)C(C)C)nn4)cc3)c2n1

1. 10 to 100 nM
2. < 10 nM

Please supply DC50 for each of the following items, keeping them in order.
1. CCn1nccc1-c1ccc([C@H](CO)NC(=O)[C@@H]2C[C@@H](O)CN2C(=O)[C@H](C(C)C)n2cc(-c3ccc(COc4c(-c5c(C)c(F)cc6[nH]ncc56)c(C5CC5)cc5c(N6CCCCCC6)nc(OC[C@H](C)OC)nc45)cc3)nn2)cc1
2. CCn1nccc1-c1ccc([C@H](C)NC(=O)[C@@H]2C[C@@H](O)CN2C(=O)[C@H](C(C)C)n2cc(-c3ccc(COc4c(-c5c(C)c(F)cc6[nH]ncc56)c(C5CC5)cc5c(N6C[C@H]7C[C@@H]6CN7)nc(OC[C@H](C)OC)nc45)cc3)nn2)cc1 (single isomer, unassigned) [Example 4A]

10 to 100 nM
< 10 nM

Provide DC50 values for the following items, in order.
1. CCn1nccc1-c1ccc([C@@H](NC(=O)[C@@H]2C[C@@H](O)CN2C(=O)[C@H](C(C)C)n2cc(-c3ccc(COc4c(-c5c(C)c(F)cc6[nH]ncc56)c(C5CC5)cc5c(N6C[C@@H]7C[C@H]6CN7)nc(OC[C@H](C)OC)nc45)cc3)nn2)C(C)O)cc1 (stereo in doubt)
2. CCn1nccc1-c1ccc([C@H](CO)NC(=O)[C@@H]2C[C@@H](O)CN2C(=O)[C@H](C(C)C)n2cc(-c3ccc(COc4c(-c5c(C)c(F)cc6[nH]ncc56)c(C5CC5)cc5c(N6C[C@@H]7C[C@H]6CN7)nc(OC(COC)C(F)(F)F)nc45)cc3)nn2)cc1 (stereo partly shown)

1: < 10 nM; 2: < 10 nM

====

biological target: KRAS (G12D) (Homo sapiens, UniProt P01116, G12D); construct: in-cell western with KRAS G12D antibody after 24 h; assay: KRAS (G12D) cellular degradation assay in AsPC-1 cells; assay type: cell-based; details: 24 hours, antibody fluorescence (Odyssey CLX), DC50 half-maximal degradation concentration
For each entry below, report its DC50 value.

Would you mind listing DC50 for each of the following molecules?
1. CCn1nccc1-c1ccc([C@H](CO)NC(=O)[C@@H]2C[C@@H](O)CN2C(=O)[C@H](C(C)C)n2cc(-c3ccc(COc4c(-c5c(C)c(F)cc6[nH]ncc56)c(C5CC5)cc5c(N6CCC(O)CC6)nc(OC[C@H](C)OC)nc45)cc3)nn2)cc1
2. CO[C@H]1C[C@H](Oc2nc(N(C)[C@@H]3CCNC3)c3cc(C4CC4)c(-c4c(C)c(F)cc5[nH]ncc45)c(OCc4ccc(-c5cn([C@H](C(=O)N6C[C@H](O)C[C@H]6C(=O)N[C@H](c6ccc(-c7scnc7C)cc6)[C@H](C)O)C(C)C)nn5)cc4)c3n2)C1

< 10 nM
< 10 nM

Here are 5 molecules. What values of DC50 were reported for them?
1. CCn1nccc1-c1ccc([C@H](CO)NC(=O)[C@@H]2C[C@@H](O)CN2C(=O)[C@H](C(C)C)n2cc(-c3ccc(COc4c(-c5c(C)c(F)cc6[nH]ncc56)c(C5CC5)cc5c(N6CCC(NC(C)=O)CC6)nc(OC[C@H](C)OC)nc45)cc3)nn2)cc1
2. CCn1nccc1-c1ccc([C@H](CO)NC(=O)[C@@H]2C[C@@H](O)CN2C(=O)[C@H](C(C)C)n2cc(-c3ccc(COc4c(-c5c(C)c(F)cc6[nH]ncc56)c(C5CC5)cc5c(N6C[C@@H]7CN[C@@H](C7)C6)nc(OC[C@H](C)OC)nc45)cc3)nn2)cc1
3. CCn1nccc1-c1ccc([C@H](CO)NC(=O)[C@@H]2C[C@@H](O)CN2C(=O)[C@H](C(C)C)n2cc(-c3ccc(COc4c(-c5c(C)c(F)cc6[nH]ncc56)c(C5CC5)cc5c(N(C)[C@@H]6CCNC6)nc(OC[C@H](C)OC)nc45)cc3)nn2)c2c1CC2
4. CCn1nccc1-c1ccc([C@H](CO)NC(=O)[C@@H]2C[C@@H](O)CN2C(=O)[C@H](C(C)C)n2cc(-c3ccc(COc4c(-c5c(C)c(F)cc6[nH]ncc56)c(C5CCC5)cc5c(N6C[C@@H]7C[C@H]6CN7)nc(OC6CCC7(CC6)COC7)nc45)cc3)nn2)cc1
5. CCn1nccc1-c1ccc([C@H](CO)NC(=O)[C@@H]2C[C@@H](O)CN2C(=O)[C@H](C(C)C)n2cc(-c3ccc(COc4c(-c5c(C)c(F)cc6[nH]ncc56)c(C5CC5)cc5c(N6C[C@@H]7C[C@H]6CN7)nc(N6CCC(OC)C6)nc45)cc3)nn2)cc1 (stereo partly shown)

1: 10 to 100 nM; 2: 10 to 100 nM; 3: < 10 nM; 4: < 10 nM; 5: < 10 nM
